# tested-target: D(1A) dopamine receptor (Bos taurus)
# Sequence (Q95136 whole entry): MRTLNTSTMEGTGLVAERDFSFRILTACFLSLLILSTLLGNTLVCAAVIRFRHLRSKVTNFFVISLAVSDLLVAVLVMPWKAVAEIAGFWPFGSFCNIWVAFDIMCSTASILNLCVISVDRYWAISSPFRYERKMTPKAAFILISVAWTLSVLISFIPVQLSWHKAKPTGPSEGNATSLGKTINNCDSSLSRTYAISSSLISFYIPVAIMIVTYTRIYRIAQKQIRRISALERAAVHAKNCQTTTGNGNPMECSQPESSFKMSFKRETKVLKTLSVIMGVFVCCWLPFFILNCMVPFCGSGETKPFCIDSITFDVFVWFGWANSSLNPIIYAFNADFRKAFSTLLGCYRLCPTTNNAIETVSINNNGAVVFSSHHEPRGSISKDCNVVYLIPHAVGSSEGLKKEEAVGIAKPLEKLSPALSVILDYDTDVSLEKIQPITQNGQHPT
# procedure-summary: Displacement of [3H]SCH-23390 from Dopamine receptor D1 of bovine striatal membranes
pKi: −log10 of the molar value.
Binary call on pKi: y from 6 upward, n beneath that.

These solved cases illustrate the format of a correct answer.
[[record]]
line_notation = "N#Cc1ccc2[nH]cc(CN3CCN(c4ccccc4)CC3)c2c1"
assigned_label = "n"

[[record]]
line_notation = "N#Cc1ccc2[nH]c(CN3CCN(c4ccccc4)CC3)cc2c1"
assigned_label = "n"

[[record]]
line_notation = "N#Cc1ccc2[nH]cc(CN3CCN(c4ccc(Cl)c(Cl)c4)CC3)c2c1"
assigned_label = "y"

[[record]]
line_notation = "N#Cc1ccc2[nH]c(CN3CCN(c4ccccc4Cl)CC3)cc2c1"
assigned_label = "n"

[[record]]
line_notation = "N#Cc1ccc2[nH]cc(CN3CCN(c4ccc(F)cc4)CC3)c2c1"
assigned_label = "y"


For this compound, is measured pKi 6 or higher? N#Cc1ccc2[nH]cc(CN3CCN(c4ccc(Cl)cc4)CC3)c2c1
y

For this compound, is measured pKi 6 or higher? N#Cc1ccc2[nH]cc(CN3CCN(c4ccccc4Cl)CC3)c2c1
y
